Reference for the values: patent US20240409556A1

The entries below come with measured EC50 values attached.
test system: NCI-H2052 mesothelioma cell line; experiment: Mesothelioma cell line proliferation assay, NCI-H2052 (ATPlite); format: cell-based; settings: NCI-H2052 cells, 6 days with compound, cell viability by ATPlite

1. C=CC(=O)N1CCN2c3nccnc3N(c3ccc(C(F)(F)F)cc3)CC2C1 (stereo not drawn) [41-En2]
< 1000 nM
2. Cc1ccc2c(n1)N1CCC(C(=O)O)CC1CN2c1ccc(C(F)(F)F)cc1 (stereo not drawn) [101-D4]
< 1000 nM
3. C=CC(=O)N1CCN2c3ccccc3N(c3ccc(C(F)(F)F)cc3)CC2C1 (single isomer, unassigned) [14-En2]
< 1000 nM
4. CC(=O)N1CCN2c3ccccc3N(c3ccc(C(F)(F)F)cc3)CC2C1 (single isomer, unassigned) [15-En2]
< 1000 nM
5. C=CC(=O)NCC1CN(c2ccc(C(F)(F)F)cc2)c2cccnc2O1 (stereo not drawn) [48-En2]
< 1000 nM

Proceeding to the next molecule to report its EC50.
The molecule listed as C=CC(=O)NCC1CN(c2ccc(C(F)(F)F)cc2)c2cccnc2N1C (single isomer, unassigned) [27-En2] has a reported EC50 of < 1000 nM

---

tested on: YAP/TAZ-TEAD transcription; assay: Reporter gene assay for measuring the inhibition of YAP/TAZ-TEAD transcription (TEAD-responsive element luciferase reporter in Hek293T cells); assay type: cell-based; conditions: Homo sapiens, HEK-293T, 24 h, 24 hours incubation
pIC50: −log10 of the molar value.
The entries below come with measured pIC50 values attached.

1) Cc1nc[nH]c1CN1CCN(c2ccc(C(F)(F)F)cc2)c2ccccc21
> 6.00
2) O=C(O)C1CCN(c2ccccc2Nc2ccc(C(F)(F)F)cc2)C(=O)C1 (stereo not drawn)
< 5.00
3) O=C(O)C1CCN2c3ncccc3N(c3ccc(C(F)(F)F)cc3)CC2C1 (stereo not drawn) [96A-En1]
> 6.00
4) O=C(O)C1CCN(c2ccccc2Nc2ccc(C(F)(F)F)cc2)CC1
> 6.00
5) FC(F)(F)c1ccc(N2CCN(Cc3ccno3)c3ccccc32)cc1
< 5.00
6) CC(C)C(=O)N1CCN2c3ncccc3N(c3ccc(C(F)(F)F)cc3)CC2C1 (stereo not drawn)
> 6.00

The compound listed as CC1(C(=O)O)CCN2c3ccccc3N(c3ccc(C(F)(F)F)cc3)CC2C1 (stereo not drawn) has a reported pIC50 of > 6.00

The compound listed as CC(=O)NC[C@@H]1CN(c2ccc(C(F)(F)F)cc2)c2cccnc2N1 has a reported pIC50 of > 6.00

The compound listed as O=Cc1ccc(CN2CCN3c4ccccc4N(c4ccc(C(F)(F)F)cc4)CC3C2)cc1O (stereo not drawn) has a reported pIC50 of 5.00 to 6.00

---

tested on: YAP/TAZ-TEAD transcription; assay: Reporter gene assay for measuring the inhibition of YAP/TAZ-TEAD transcription (TEAD-responsive element luciferase reporter in Hek293T cells); assay type: cell-based; conditions: Homo sapiens, HEK-293T, 24 h, 24 hours incubation
pIC50: −log10 of the molar value.
The entries below come with measured pIC50 values attached.

1) O=C1CN2c3ccccc3N(c3ccc(C(F)(F)F)cc3)CC2CN1 (stereo not shown)
5.00 to 6.00

The molecule listed as O=C(CO)N[C@@H]1C[C@@H]2CN(c3ccc(C(F)(F)F)cc3)c3cccnc3N2C1 has a reported pIC50 of > 6.00

The molecule listed as O=C(O)C1(O)CCN2c3ccccc3N(c3ccc(C(F)(F)F)cc3)CC2C1 (stereo not shown) [126A] has a reported pIC50 of > 6.00

The molecule listed as CNS(=O)(=O)N1CCN2c3ncccc3N(c3ccc(C(F)(F)F)cc3)CC2C1 (stereo not shown) has a reported pIC50 of > 6.00

The molecule listed as CNS(=O)(=O)N1CCN2C(=O)CN(c3ccc(C(F)(F)F)cc3)CC2C1 (stereo not shown) has a reported pIC50 of < 5.00

The molecule listed as Cc1nnc(N2CCN3c4ccccc4N(c4ccc(C(F)(F)F)cc4)CC3C2)o1 (stereo not shown) has a reported pIC50 of < 5.00

The molecule listed as COC(=O)N1CCN2c3ccccc3N(c3ccc(C(F)(F)F)cc3)CC2C1 (stereo not shown) has a reported pIC50 of > 6.00

The molecule listed as C=CC(=O)NCC1CN(c2ccc(C(F)(F)F)cc2)c2ccccc2N1C(C)=O (stereo not shown) has a reported pIC50 of 5.00 to 6.00

The molecule listed as Cc1ccc2c(n1)N1CCC(C(=O)O)CC1CN2c1ccc(C(F)(F)F)cc1 (stereo not shown) [101-D1] has a reported pIC50 of > 6.00

The molecule listed as CC(=O)NCC1CN(c2ccc(C(F)(F)F)cc2)c2ccccc2N1CCO (stereo not shown) has a reported pIC50 of < 5.00
